The following compounds are listed with their measured inhibition at 1 µM values.
target: human recombinant histamine H1 receptor (Homo sapiens); construct: expressed in transfected cells; host or cells: CHO cells; experiment: Histamine H1 radioligand binding ([3H]Pyrilamine); conditions: compound at 1 μM; read-out: Histamine Binding (1 μM) H1, percent inhibition of specific binding
Sequence (P35367 whole entry): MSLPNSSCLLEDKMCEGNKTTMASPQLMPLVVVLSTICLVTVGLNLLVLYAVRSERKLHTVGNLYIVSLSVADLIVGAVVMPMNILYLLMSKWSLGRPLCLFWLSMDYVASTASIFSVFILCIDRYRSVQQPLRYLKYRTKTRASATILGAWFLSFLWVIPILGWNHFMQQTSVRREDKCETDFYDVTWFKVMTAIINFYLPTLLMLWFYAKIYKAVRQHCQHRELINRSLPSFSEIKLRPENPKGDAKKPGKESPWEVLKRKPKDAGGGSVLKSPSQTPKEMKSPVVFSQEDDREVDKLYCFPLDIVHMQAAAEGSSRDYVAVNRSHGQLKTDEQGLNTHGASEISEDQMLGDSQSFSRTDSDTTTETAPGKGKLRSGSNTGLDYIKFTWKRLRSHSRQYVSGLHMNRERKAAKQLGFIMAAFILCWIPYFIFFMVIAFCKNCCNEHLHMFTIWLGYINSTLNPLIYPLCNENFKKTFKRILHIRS
Give the number; % is assumed, so skip it.

Previously resolved entries follow.
Compound: C/C(=C\n1c2c(c3cc(Cl)ccc31)CCN(C)CC2)c1ccccc1Cl
Readout: inhibition at 1 µM
Observed: 96

Compound: CN1CCc2c(n(CCc3ccccn3)c3ccc(Cl)cc23)CC1
Readout: inhibition at 1 µM
Observed: 97

Compound: COc1ccc(C(O)Cn2c3c(c4cc(Cl)ccc42)CCN(C)CC3)c(F)c1 (stereo not shown)
Readout: inhibition at 1 µM
Observed: 94

Compound: C/C(=C\n1c2c(c3cc(C)ccc31)CCN(C)CC2)c1ccc(F)c(F)c1
Readout: inhibition at 1 µM
Observed: 93

Compound: COc1ccc(C(O)Cn2c3c(c4cc(C)ccc42)CCN(C)CC3)c(F)c1 (stereo not shown)
Readout: inhibition at 1 µM
Observed: 98

Value of measured inhibition at 1 µM for the entry `C/C(=C\n1c2c(c3cc(Cl)ccc31)CCN(C)CC2)c1cccnc1` : 96

inhibition at 1 µM reported for this compound `Cc1ccc2c(c1)c1c(n2CC(=O)N2CCNCC2)CCN(C)CC1` : 33

====

molecular target: human recombinant serotonin (5-Hydroxytryptamine) 5-HT2A receptor (Homo sapiens); construct: expressed in transfected cells; host or cells: CHO-K1 cells; test: Serotonin 5-HT2A radioligand binding ([3H]Ketanserin); settings: compound at 1 μM; read-out: Serotonin (1 μM) 5-HT2A, percent inhibition of specific binding
Sequence (P28223 whole entry): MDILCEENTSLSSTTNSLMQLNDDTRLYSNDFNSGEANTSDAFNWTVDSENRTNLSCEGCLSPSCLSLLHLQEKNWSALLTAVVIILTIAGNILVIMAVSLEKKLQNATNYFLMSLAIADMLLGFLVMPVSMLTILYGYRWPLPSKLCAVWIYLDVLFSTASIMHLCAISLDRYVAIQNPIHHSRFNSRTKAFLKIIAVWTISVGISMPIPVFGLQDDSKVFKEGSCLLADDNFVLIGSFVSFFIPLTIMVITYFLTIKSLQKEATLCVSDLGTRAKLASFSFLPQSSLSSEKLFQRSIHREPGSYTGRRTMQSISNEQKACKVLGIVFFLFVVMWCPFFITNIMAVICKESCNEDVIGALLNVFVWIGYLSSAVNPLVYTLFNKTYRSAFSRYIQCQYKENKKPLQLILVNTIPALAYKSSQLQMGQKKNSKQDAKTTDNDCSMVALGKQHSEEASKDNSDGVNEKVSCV
Respond with true for inhibition at 1 µM values of 40% and above, false for values below.

Compound: CN1CCc2c(n(CCc3ccccc3F)c3ccc(Cl)cc23)CC1
System: human recombinant serotonin (5-Hydroxytryptamine) 5-HT2A receptor (Homo sapiens)
Cat: true

Exercise: Is reported inhibition at 1 µM greater than or equal to 40% here: `CC(C)NC(=O)Cn1c2c(c3cc(Cl)ccc31)CCN(C)CC2`
Solution: true

Exercise: Could you tell me if the measured inhibition at 1 µM of `CN1CCc2c(n(CC(=O)Nc3ccccc3)c3ccc(Cl)cc23)CC1` reaches 40% or more?
Solution: false

====

molecular target: human recombinant histamine H1 receptor (Homo sapiens); construct: expressed in transfected cells; host or cells: CHO cells; assay: Histamine H1 radioligand binding ([3H]Pyrilamine); conditions: compound at 1 μM; read-out: Histamine Binding (1 μM) H1, percent inhibition of specific binding
Parameter inhibition at 1 µM: see the listing below.
Quick note: unit goes after the number.

Examples with answers:
Compound: C/C(=C\n1c2c(c3cc(C)ccc31)CCN(C)CC2)c1ccc(Cl)cc1Cl
System: human recombinant histamine H1 receptor (Homo sapiens)
inhibition at 1 µM: 98%
//
Compound: CN1CCc2c(n(CCc3ccc(Cl)cc3)c3ccc(Cl)cc23)CC1
System: human recombinant histamine H1 receptor (Homo sapiens)
inhibition at 1 µM: 102%
//
Compound: C=C(Cn1c2c(c3cc(Cl)ccc31)CCN(C)CC2)c1ccc(F)cc1
System: human recombinant histamine H1 receptor (Homo sapiens)
inhibition at 1 µM: 103%

inhibition at 1 µM for `CN1CCc2c(n(CCc3cncc(Cl)c3)c3ccc(Cl)cc23)CC1` is 101%

Item: `CN1CCc2c(n(CC(=O)N3CCNCC3)c3ccc(Cl)cc23)CC1` | inhibition at 1 µM: -12%

====

Molecular target: human recombinant adrenergic α1D receptor (Homo sapiens, UniProt P25100)
Construct: expressed in transfected cells; host or cells: HEK-293 cells
Sequence (P25100 1-572): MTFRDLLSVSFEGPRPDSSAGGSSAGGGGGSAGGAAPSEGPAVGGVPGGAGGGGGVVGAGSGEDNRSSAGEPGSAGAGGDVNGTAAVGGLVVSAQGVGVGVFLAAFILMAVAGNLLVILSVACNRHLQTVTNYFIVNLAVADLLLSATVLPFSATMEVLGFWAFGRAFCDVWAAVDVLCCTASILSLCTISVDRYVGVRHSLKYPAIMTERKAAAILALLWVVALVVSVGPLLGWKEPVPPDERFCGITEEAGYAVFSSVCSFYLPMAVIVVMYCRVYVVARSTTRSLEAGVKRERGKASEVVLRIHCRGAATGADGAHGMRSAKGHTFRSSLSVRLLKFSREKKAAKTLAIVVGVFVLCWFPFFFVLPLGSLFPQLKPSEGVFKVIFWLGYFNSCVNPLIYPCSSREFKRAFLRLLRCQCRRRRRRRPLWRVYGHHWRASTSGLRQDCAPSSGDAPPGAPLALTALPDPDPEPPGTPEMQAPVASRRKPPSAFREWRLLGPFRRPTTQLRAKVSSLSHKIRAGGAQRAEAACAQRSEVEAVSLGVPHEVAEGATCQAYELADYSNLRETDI
Assay: Adrenergic alpha1D radioligand binding ([3H]Prozosin)
Conditions: compound at 1 μM; read-out: Adrenergic (1 μM) α1D, percent inhibition of specific binding
Given measured inhibition at 1 µM, output MET if it is greater than or equal to 80% and NOT MET if not.

For orientation, consider the following solved cases.
Compound: Cc1ccc2c(c1)c1c(n2CC(O)c2ccc(F)cc2F)CCN(C)CC1 (stereo not drawn) [Compound No. 59]
System: human recombinant adrenergic α1D receptor (Homo sapiens, UniProt P25100)
Cat: NOT MET
--
Compound: Cc1ccc2c(c1)c1c(n2CCc2ccncc2)CCN(C)CC1 [Compound No. 6]
System: human recombinant adrenergic α1D receptor (Homo sapiens, UniProt P25100)
Cat: MET
--
Compound: Cc1ccc2c(c1)c1c(n2CC(=O)OC2CCCC2)CCN(C)CC1 [Compound No. 55]
System: human recombinant adrenergic α1D receptor (Homo sapiens, UniProt P25100)
Cat: NOT MET
--
Compound: CN1CCc2c(n(CC(=O)Nc3ccc(F)cc3)c3ccc(Cl)cc23)CC1 [Compound No. 37]
System: human recombinant adrenergic α1D receptor (Homo sapiens, UniProt P25100)
Cat: NOT MET

Exercise: Test whether the compound CN1CCc2c(n(CC(=O)N3CCNCC3)c3ccc(Cl)cc23)CC1 [Compound No. 72] records inhibition at 1 µM of 80% or higher.
Solution: NOT MET

Exercise: Dear colleague, could you confirm whether Cc1ccc2c(c1)c1c(n2/C=C/c2ccc(F)cc2)CCN(C)CC1 [Compound No. 39] has inhibition at 1 µM at or above 80%?
Solution: MET

====

# inhibition at 1 µM per entry
target: human recombinant histamine H2 receptor (Homo sapiens); construct: expressed in transfected cells; host or cells: CHO-K1 cells; experiment: Histamine H2 radioligand binding ([125I]Aminopotentidine); details: compound at 1 μM; read-out: Histamine Binding (1 μM) H2, percent inhibition of specific binding
Sequence (P25021 whole entry): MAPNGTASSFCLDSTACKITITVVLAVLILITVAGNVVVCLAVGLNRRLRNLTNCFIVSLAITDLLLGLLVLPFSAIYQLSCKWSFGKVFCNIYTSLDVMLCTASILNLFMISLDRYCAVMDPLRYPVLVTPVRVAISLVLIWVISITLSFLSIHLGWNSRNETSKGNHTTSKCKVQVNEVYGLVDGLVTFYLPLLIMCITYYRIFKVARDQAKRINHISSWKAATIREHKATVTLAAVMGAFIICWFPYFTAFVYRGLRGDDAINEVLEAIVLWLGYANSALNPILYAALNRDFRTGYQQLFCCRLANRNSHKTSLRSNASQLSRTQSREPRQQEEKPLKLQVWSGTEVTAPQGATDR
Numbers only; they are read as %.

Assay human recombinant histamine H2 receptor (Homo sapiens), sample `CN1CCc2c(n(CC(=O)N3CCCC3)c3ccc(Cl)cc23)CC1` , inhibition at 1 µM read: 3

Fill in: human recombinant histamine H2 receptor (Homo sapiens) inhibition at 1 µM for CN1CCc2c(n(CC(O)c3ccc(Cl)cc3)c3ccc(Cl)cc23)CC1 (stereo not shown) = 92

# `Cc1ccc2c(c1)c1c(n2CCc2ccc(Cl)cc2)CCN(C)CC1` with human recombinant histamine H2 receptor (Homo sapiens): inhibition at 1 µM is 97

Bench note, human recombinant histamine H2 receptor (Homo sapiens): entry `COc1ccc(/C(C)=C/n2c3c(c4cc(C)ccc42)CCN(C)CC3)cc1` , its inhibition at 1 µM = 92

So the reported inhibition at 1 µM for Cc1ccc2c(c1)c1c(n2CC(O)c2ccccc2)CCN(C)CC1 (stereo not shown) , on human recombinant histamine H2 receptor (Homo sapiens), turned out to be 47

====

Catalogue of compounds with associated inhibition at 1 µM
biological target: human recombinant adrenergic α2A receptor (Homo sapiens); construct: expressed in transfected cells; host or cells: insect Sf9 cells; assay: Adrenergic alpha2A radioligand binding ([3H]MK-912); details: compound at 1 μM; read-out: Adrenergic (1 μM) α2A, percent inhibition of specific binding
Sequence (P08913 whole entry): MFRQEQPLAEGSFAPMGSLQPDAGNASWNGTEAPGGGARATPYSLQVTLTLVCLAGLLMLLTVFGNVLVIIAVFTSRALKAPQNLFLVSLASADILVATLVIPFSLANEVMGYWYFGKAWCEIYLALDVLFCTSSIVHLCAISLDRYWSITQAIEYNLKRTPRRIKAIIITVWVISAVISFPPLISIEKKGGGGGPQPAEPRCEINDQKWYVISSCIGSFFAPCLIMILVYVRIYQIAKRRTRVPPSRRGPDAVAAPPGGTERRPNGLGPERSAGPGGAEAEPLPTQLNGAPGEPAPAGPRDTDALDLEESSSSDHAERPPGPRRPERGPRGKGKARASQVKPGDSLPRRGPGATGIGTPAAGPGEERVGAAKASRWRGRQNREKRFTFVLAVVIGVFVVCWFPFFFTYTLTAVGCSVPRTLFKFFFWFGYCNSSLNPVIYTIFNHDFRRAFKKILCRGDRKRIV
Response body: numeric value in %, unit text excluded.

Compound: C/C(=C\n1c2c(c3cc(C)ccc31)CCN(C)CC2)c1ccc(Cl)cc1
Readout: inhibition at 1 µM
Observed: 97

Compound: CN1CCc2c(n(CC(O)c3ccccc3)c3ccc(Cl)cc23)CC1 (centres unmarked)
Readout: inhibition at 1 µM
Observed: 100

Compound: CN1CCc2c(n(/C=C/c3ccc(F)c(F)c3)c3ccc(Cl)cc23)CC1
Readout: inhibition at 1 µM
Observed: 89

Compound: COc1ccc(C(O)Cn2c3c(c4cc(C)ccc42)CCN(C)CC3)cc1 (centres unmarked)
Readout: inhibition at 1 µM
Observed: 98

The reported value for Cc1ccc2c(c1)c1c(n2CC(C)(O)c2ccc(F)cc2)CCN(C)CC1 (centres unmarked) in terms of inhibition at 1 µM is 90

inhibition at 1 µM for `Cc1ccc2c(c1)c1c(n2CC(=O)Nc2ccccc2)CCN(C)CC1` is 17

The measured inhibition at 1 µM associated with `Cc1ccc2c(c1)c1c(n2CCc2ccccc2Cl)CCN(C)CC1` reads 8

Reported inhibition at 1 µM ( `CN1CCc2c(n(CCc3ccc(C(=O)O)nc3)c3ccc(Cl)cc23)CC1` ) = -7

// provenance: patent US9481676B2
